- Target desc: EGFR (UniProt P00533)
- Sequence (P00533 whole entry, looked up): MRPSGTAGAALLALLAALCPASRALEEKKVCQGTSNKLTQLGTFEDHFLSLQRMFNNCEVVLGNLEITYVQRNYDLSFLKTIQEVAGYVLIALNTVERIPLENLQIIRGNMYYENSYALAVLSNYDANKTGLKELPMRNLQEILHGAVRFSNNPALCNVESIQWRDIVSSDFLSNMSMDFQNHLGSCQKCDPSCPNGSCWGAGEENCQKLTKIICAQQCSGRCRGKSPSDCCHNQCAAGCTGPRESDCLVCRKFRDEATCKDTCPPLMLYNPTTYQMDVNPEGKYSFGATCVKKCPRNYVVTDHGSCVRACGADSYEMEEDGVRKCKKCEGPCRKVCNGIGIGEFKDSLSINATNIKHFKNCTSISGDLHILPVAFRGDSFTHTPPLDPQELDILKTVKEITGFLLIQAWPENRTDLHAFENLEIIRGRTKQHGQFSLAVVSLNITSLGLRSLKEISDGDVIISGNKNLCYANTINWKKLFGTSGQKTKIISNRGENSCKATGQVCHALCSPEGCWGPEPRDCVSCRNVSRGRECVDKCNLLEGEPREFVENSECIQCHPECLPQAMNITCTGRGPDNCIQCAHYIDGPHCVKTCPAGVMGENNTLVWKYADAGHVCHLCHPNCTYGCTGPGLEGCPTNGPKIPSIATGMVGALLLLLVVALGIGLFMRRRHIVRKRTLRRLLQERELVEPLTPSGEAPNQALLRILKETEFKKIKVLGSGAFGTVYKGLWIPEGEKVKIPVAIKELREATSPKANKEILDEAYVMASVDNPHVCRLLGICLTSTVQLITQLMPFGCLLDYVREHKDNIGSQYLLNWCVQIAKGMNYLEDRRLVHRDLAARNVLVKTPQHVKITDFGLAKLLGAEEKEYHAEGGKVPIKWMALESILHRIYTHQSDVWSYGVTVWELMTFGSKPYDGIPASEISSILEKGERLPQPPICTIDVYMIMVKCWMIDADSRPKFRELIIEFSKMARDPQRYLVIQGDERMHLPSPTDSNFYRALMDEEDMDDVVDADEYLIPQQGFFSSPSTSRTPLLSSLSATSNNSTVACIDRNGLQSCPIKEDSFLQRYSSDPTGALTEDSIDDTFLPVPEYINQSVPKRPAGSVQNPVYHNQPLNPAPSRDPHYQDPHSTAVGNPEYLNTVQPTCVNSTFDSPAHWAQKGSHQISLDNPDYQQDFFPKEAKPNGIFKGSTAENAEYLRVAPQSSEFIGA
Test readout: IC50 (µM)
Provide only the numeric value, understood in µM.

Name the recorded IC50 of the item O=C(/C=C/c1ccc(O)c(O)c1)c1ccc(O)cc1O in your answer.
16

----------
Items are presented alongside their recorded IC50.
- Target desc: ROCK2 (human)
- Measurement protocol: Inhibition of ROCK2 Kinase Activity
Quick note: give the figure in nM, leave out the unit.

Note IC50 for the compound shown: O=C(NCc1ccc(F)cc1)Nc1nc(-c2ccncc2)cs1
19

Please indicate IC50 recorded for Nc1nc(Nc2ccc(Oc3ccc4cn[nH]c4c3)c(F)c2)cc(-c2ccncc2)n1
100

More entries:
// fetch IC50 given entry OC[C@@H](O)COc1cccc(CN2CCC[C@H](Nc3ccc4[nH]ncc4c3)C2)c1
323

Determine its reported IC50: Nc1nc(Nc2cc(F)c(Sc3ccncc3)c(F)c2)cc(N2C[C@H]3CCCN[C@H]3C2)n1
5

Quickly give me recorded IC50 for Nc1nc(Nc2ccc(Cc3ccnc4[nH]ccc34)c(F)c2)cc(C(F)(F)F)n1
7

# return recorded IC50 for entry Cc1c[nH]c2nccc(Nc3ccc(Nc4cc(C(F)(F)F)nc(N)n4)cc3F)c12
4

Consider the compound C[C@@H](N)c1ccc(C(=O)Nc2ccncc2)cc1 and give its recorded IC50.
390
